tgt: T1, CRBN, Q96SW2
T1 chain: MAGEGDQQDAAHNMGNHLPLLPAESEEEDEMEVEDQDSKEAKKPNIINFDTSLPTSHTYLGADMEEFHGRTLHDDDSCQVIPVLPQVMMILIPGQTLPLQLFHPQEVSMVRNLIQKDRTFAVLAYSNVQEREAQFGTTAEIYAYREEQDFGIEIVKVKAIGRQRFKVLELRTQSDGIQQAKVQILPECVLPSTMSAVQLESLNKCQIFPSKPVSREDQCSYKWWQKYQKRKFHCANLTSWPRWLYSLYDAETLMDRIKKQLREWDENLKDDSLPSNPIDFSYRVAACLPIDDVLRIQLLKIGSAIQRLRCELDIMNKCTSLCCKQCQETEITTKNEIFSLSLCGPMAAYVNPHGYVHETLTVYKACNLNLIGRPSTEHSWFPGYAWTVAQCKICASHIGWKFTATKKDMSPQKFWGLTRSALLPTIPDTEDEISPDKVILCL
protocol-description: log2 fold change of degron read counts, EGFP-low vs EGFP+ sorted cells (limma voom), compound-induced degradation; higher = more compound-induced degradation of the degron-EGFP fusion; degrons are variants of IKZF1/3 zinc finger 2; compound dose not given here;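 also: pooled lentiviral library of zinc finger degron-EGFP fusions in mCherry-positive Jurkat cells, FACS-sorted after compound exposure, with degron abundance counted by next-generation sequencing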
measurement-conditions: Jurkat; 18 h; compound: compound 33 (diphenyl IMiD analogue)
Whole data set: some 8,300 sequences, median “log2 fold change of degron read counts, EGFP-low vs EGFP+ sorted cells (limma voom), compound-induced degradation” near -1.1, cut for the highest 2% near 3.2. The list comes from a sample in which the highest values are over-represented; it also holds close analogues and randomly drawn sequences.
parameter: log2 fold change of degron read counts
Reply briefly: the number, and no unit.

Incoming: Return reported log2 fold change of degron read counts; argument: FWCEVCGAQFTQKGNLLRHIKL [46F_47W_49E_50V_52G_53A_54Q_55F_67L_, Q9UKT9]
Outgoing: 2.82

Incoming: Return reported log2 fold change of degron read counts; argument: FWCEICGAIFTQKGNLLRHIKL [46F_47W_49E_50I_52G_53A_54I_55F_67L_, Q9UKT9]
Outgoing: 2.41

Incoming: Return reported log2 fold change of degron read counts; argument: FDCEVCGAQFTQKGNLLRHIKL [46F_47D_49E_50V_52G_53A_54Q_55F_67L_, Q9UKT9]
Outgoing: -0.0193
